# Tested on: rice (Diamant variety)
# assay-details: Rice seed treatment with BHMPA salts: germinating power
# Assay type: in vivo
# stated-conditions: rice seeds; solution concentration 1 · 10^−7%
assay-readout: Mass, dry, root

compound="O.O.O=P([O-])(CO)CO.O=P([O-])(CO)CO.[Mn+2] [Mn-salt, Manganese BHMPA Salt]" subject_of_test="rice (Diamant variety)" assay_readout="Mass, dry, root" reported_value="0.25 g/100 plantlings"
compound="O=P([O-])(CO)CO.O=P([O-])(CO)CO.[Ca+2] [Ca-salt, Calcium BHMPA Salt]" subject_of_test="rice (Diamant variety)" assay_readout="Mass, dry, root" reported_value="0.24 g/100 plantlings"
compound="O=P([O-])(CO)CO.[Na+] [Na-salt, Sodium BHMPA Salt]" subject_of_test="rice (Diamant variety)" assay_readout="Mass, dry, root" reported_value="0.22 g/100 plantlings"
compound="O=P([O-])(CO)CO.O=P([O-])(CO)CO.[Mg+2] [Mg-salt, Magnesium BHMPA Salt]" subject_of_test="rice (Diamant variety)" assay_readout="Mass, dry, root" reported_value="0.25 g/100 plantlings"
compound="O.O.O=P([O-])(CO)CO.O=P([O-])(CO)CO.[Co+2] [Co-salt, Cobalt BHMPA Salt]" subject_of_test="rice (Diamant variety)" assay_readout="Mass, dry, root" reported_value="0.22 g/100 plantlings"

* * *

Listed below: Length, root, + % to control values for each entry.
# System: rice (Diamant variety)
# assay-details: Rice seed treatment with BHMPA salts: germinating power
# Format: in vivo
# stated-conditions: rice seeds; solution concentration 1 · 10^−8%
assay-readout: Length, root, + % to control (%)

compound="O=P([O-])(CO)CO.[Na+] [Na-salt, Sodium BHMPA Salt]" reported_value=11.5
compound="O=P([O-])(CO)CO.O=P([O-])(CO)CO.[Ca+2] [Ca-salt, Calcium BHMPA Salt]" reported_value=21
compound="O=P([O-])(CO)CO.O=P([O-])(CO)CO.[Mg+2] [Mg-salt, Magnesium BHMPA Salt]" reported_value=24.5
compound="O.O.O=P([O-])(CO)CO.O=P([O-])(CO)CO.[Mn+2] [Mn-salt, Manganese BHMPA Salt]" reported_value=8
compound="O.O.O=P([O-])(CO)CO.O=P([O-])(CO)CO.[Co+2] [Co-salt, Cobalt BHMPA Salt]" reported_value=21

* * *

Listed below: Mass, wet, root, + % to control values for each entry.
# Test system: rice (Diamant variety)
# assay-details: Rice seed treatment with BHMPA salts: germinating power
# Type: in vivo
# stated-conditions: rice seeds; solution concentration 1 · 10^−7%
assay-readout: Mass, wet, root, + % to control (%)

molecule="O.O.O=P([O-])(CO)CO.O=P([O-])(CO)CO.[Mn+2] [Mn-salt, Manganese BHMPA Salt]" assay_readout="Mass, wet, root, + % to control" reported_value=23
molecule="O=P([O-])(CO)CO.[Na+] [Na-salt, Sodium BHMPA Salt]" assay_readout="Mass, wet, root, + % to control" reported_value=21
molecule="O=P([O-])(CO)CO.O=P([O-])(CO)CO.[Ca+2] [Ca-salt, Calcium BHMPA Salt]" assay_readout="Mass, wet, root, + % to control" reported_value=26
molecule="O=P([O-])(CO)CO.O=P([O-])(CO)CO.[Mg+2] [Mg-salt, Magnesium BHMPA Salt]" assay_readout="Mass, wet, root, + % to control" reported_value=27
molecule="O.O.O=P([O-])(CO)CO.O=P([O-])(CO)CO.[Co+2] [Co-salt, Cobalt BHMPA Salt]" assay_readout="Mass, wet, root, + % to control" reported_value=15
